System: bacterial inoculum
Assay: Thermal stability: in vitro lytic assay after 30 min heating
Type: cell-based
Conditions: 30 minutes at 42° C.
Here the recorded % of CF-301 wild-type, 42° C. is given for each entry.
result_type: % of CF-301 wild-type, 42° C. (%)

| molecule | result_type | unit_symbol | number |
| --- | --- | --- | --- |
| pp55: Modified PlySs2 lysin, SEQ ID NO: 3: L92W, V104S, V128T, Y137S; extra C-terminal lysine (+246K) (protein) MTTVNEALNNVRAQVGSGVSVGNGECYALASWYERMISPDATVGLGAGVGWVSGAIGDTISAKNIGSSYNWQANGWTVSTSGPFKAGQIVTWGATPGNPYGHVSIVEAVDGDRLTILEQNYGGKRYPTRNYYSAASSRQQVVHYITPPGTVAQSAPNLAGSRSYRETGTMTVTVDALNVRRAPNTSGEIVAVYKRGESFDYDTVIIDVNGYVWVSYIGGSGKRNYVATGATKDGKRFGNAWGTFK | % of CF-301 wild-type, 42° C. | % | 116.7 |
| pp296: Modified PlySs2 lysin, SEQ ID NO: 6: L92W, V104S, V128T, Y137S, Y164K, N184D, S198Q (protein) MTTVNEALNNVRAQVGSGVSVGNGECYALASWYERMISPDATVGLGAGVGWVSGAIGDTISAKNIGSSYNWQANGWTVSTSGPFKAGQIVTWGATPGNPYGHVSIVEAVDGDRLTILEQNYGGKRYPTRNYYSAASSRQQVVHYITPPGTVAQSAPNLAGSRSKRETGTMTVTVDALNVRRAPDTSGEIVAVYKRGEQFDYDTAIIDVNGYAWVSYIGGSGKRNYVATGATKDGKRFGNAWGTFK | % of CF-301 wild-type, 42° C. | % | 141.2 |
| pp61: Modified PlySs2 lysin, SEQ ID NO: 4: L92W, V104S, V128T, Y137S, S198H, I206E; +246K (protein) MTTVNEALNNVRAQVGSGVSVGNGECYALASWYERMISPDATVGLGAGVGWVSGAIGDTISAKNIGSSYNWQANGWTVSTSGPFKAGQIVTWGATPGNPYGHVSIVEAVDGDRLTILEQNYGGKRYPTRNYYSAASSRQQVVHYITPPGTVAQSAPNLAGSRSYRETGTMTVTVDALNVRRAPNTSGEIVAVYKRGEHFDYDTVIEDVNGYVWVSYIGGSGKRNYVATGATKDGKRFGNAWGTFK | % of CF-301 wild-type, 42° C. | % | 189.4 |
